Where do these numbers come from? They come from patent US20250250357A1.

Listed next: entries and their corresponding pEC50.
- TARGET DESC: T1, human MSLN-R3 on HEK293T-hMSLN-R3 recombinant cells (human, UniProt Q13421 487-606)
- T1 construct: the C-terminal limit is uncertain; also called human MSLN-R3 membrane protein
- T1 sequence (Q13421 495-614): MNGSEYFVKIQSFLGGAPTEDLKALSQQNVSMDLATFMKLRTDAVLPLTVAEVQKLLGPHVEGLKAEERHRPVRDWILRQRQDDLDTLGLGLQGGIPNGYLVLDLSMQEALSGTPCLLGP
- ASSAY EXPLANATION: FACS, HEK293T-hMSLN-R3 cells
Lab note: report pEC50 as minus log10 of the concentration in molar units, number only.

Observe how each entry below is paired with its result.
| BINDER | OBSERVED VALUE |
| --- | --- |
| F7.33.24-H10 (scFv, not shown: small tags and cut ends, also called S009-F7.33.24 humanized antibody VH2a + VL1) scFv: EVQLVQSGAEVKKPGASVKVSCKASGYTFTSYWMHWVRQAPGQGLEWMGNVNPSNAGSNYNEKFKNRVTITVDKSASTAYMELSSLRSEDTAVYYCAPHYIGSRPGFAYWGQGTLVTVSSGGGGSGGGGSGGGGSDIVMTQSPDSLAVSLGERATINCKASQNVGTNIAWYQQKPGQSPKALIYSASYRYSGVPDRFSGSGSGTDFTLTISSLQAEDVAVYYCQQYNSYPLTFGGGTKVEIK | 8.96 |
| Tab111 (scFv, not shown: small tags and cut ends, also called YP218 VL-(G4S)3-VH-his antibody; positive control) scFv: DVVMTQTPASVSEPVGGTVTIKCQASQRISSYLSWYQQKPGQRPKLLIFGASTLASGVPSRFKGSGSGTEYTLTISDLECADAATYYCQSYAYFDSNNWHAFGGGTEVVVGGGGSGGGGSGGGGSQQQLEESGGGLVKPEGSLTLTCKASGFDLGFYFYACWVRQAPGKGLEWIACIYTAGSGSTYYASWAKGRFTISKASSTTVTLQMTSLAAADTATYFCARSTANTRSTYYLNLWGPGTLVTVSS | 9.12 |
| F7.33.24-H5 (scFv, not shown: small tags and cut ends, also called S009-F7.33.24 humanized antibody VH1a + VL2) scFv: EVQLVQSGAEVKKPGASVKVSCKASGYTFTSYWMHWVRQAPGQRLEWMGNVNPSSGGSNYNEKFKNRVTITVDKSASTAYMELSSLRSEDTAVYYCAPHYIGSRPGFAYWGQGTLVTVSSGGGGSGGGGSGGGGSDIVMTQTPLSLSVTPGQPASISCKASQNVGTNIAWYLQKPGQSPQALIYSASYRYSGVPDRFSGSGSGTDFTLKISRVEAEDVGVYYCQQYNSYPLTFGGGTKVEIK | 8.87 |
| F7.33.24-H2 (scFv, not shown: small tags and cut ends, also called S009-F7.33.24 humanized antibody VH1 + VL2) scFv: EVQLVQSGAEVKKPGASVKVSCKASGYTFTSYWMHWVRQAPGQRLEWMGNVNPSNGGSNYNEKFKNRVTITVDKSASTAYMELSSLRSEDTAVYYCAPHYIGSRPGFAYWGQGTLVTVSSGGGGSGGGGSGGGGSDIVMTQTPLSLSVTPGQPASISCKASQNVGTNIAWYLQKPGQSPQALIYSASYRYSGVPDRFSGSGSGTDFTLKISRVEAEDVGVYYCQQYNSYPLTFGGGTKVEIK | 8.92 |

Data request: Sample F7.33.24 (scFv) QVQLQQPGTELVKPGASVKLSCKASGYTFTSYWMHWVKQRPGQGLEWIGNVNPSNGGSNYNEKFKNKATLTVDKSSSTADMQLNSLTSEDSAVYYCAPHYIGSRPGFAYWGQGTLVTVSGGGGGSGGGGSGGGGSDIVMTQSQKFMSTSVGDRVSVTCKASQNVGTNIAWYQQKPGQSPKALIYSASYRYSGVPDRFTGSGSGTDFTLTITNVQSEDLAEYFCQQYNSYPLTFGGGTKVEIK — what was its pEC50?
Data returned: 8.79
